Molecular target: pancreatic lipase (Sus scrofa, UniProt P00591)
Sequence (P00591 1-450): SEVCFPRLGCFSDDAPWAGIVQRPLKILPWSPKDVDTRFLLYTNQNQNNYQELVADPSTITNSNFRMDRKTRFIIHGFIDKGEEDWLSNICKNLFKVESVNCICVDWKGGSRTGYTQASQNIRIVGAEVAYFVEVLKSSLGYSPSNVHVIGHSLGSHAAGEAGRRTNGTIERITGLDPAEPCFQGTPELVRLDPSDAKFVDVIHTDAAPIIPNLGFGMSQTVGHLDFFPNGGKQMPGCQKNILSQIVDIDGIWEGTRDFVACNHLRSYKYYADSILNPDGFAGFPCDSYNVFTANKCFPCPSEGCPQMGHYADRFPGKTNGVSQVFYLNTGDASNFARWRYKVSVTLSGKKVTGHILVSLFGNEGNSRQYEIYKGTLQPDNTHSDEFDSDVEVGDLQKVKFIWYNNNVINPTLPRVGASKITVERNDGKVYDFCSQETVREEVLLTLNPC
valueKind: IC50 (nM)

>  <compound>
O=S(=O)(O)CCCN1c2ccc(F)cc2Sc2cc3ccccc3nc21

>  <IC50 (nM)>
1240

$$$$
>  <compound>
O=S(=O)(O)CCCCN1c2ccc(Cl)cc2Sc2cc3ccccc3nc21

>  <IC50 (nM)>
870

$$$$
